The origin of these recorded values is the supplement of paper PMC7877785.

Method description: self-splicing fitness, log relative to wild type (ln ratio); higher = more splicing; Tetrahymena group I intron in knt gene, E. coli kanamycin selection, DiMSum; sequences stand for … in CUCUCU…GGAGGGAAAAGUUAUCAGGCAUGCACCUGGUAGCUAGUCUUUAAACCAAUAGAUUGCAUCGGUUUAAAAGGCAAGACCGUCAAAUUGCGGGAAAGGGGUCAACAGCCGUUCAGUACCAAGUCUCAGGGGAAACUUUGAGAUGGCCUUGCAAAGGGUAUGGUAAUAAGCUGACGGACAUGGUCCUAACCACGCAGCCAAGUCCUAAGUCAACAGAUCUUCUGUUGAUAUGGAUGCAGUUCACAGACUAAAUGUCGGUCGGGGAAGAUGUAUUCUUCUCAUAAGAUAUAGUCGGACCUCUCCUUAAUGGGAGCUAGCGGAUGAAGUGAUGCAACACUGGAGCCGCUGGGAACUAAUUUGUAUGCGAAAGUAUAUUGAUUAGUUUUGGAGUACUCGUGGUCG;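 further: selection with 25 µg/mL kanamycin versus none on LB agar overnight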
Applied conditions: 30 °C
Threshold check on self-splicing fitness (ln): at or above -2 gives true, strictly below gives false.

// below: answered sequences
INSERT INTO results (entry_sequence, category) VALUES
  ('AUGUAGCAAUAUUACGCGUC', 'false'),
  ('GUGCAGCAAUAUUACGUCGA', 'true'),
  ('CUAGAGCAAUAUUACGAAUG', 'true'),
  ('CAAAAGCAAUAUUACGGGAA', 'false'),
  ('UCACAGCAAUAUUACGGCCA', 'true');

Here is another sequence to look at.
Could you please find out whether UAGAAGCAAUAUUACGGGCA has self-splicing fitness (ln) that meets -2 or exceeds it?
true

----------
Method description: self-splicing fitness, log relative to wild type (ln ratio); higher = more splicing; Tetrahymena group I intron in knt gene, E. coli kanamycin selection, DiMSum; sequences stand for … in CUCUCU…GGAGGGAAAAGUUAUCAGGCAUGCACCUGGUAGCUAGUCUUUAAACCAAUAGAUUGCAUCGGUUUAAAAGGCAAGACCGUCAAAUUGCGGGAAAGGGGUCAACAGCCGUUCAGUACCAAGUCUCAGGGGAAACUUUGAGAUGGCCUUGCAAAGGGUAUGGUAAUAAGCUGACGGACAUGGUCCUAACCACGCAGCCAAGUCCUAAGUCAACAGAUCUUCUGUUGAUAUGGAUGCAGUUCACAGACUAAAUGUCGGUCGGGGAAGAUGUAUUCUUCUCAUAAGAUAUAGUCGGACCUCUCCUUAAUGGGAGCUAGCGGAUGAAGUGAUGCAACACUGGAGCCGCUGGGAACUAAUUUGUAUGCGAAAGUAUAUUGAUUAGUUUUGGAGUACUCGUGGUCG
Applied conditions: 37 °C
Measurement type: self-splicing fitness (ln)
Give bare numbers.

Some sequences with known self-splicing fitness (ln) results, for comparison:
INSERT INTO measurements (entry_sequence, measurement_type, recorded_number) VALUES
  ('UCUAAGCAAUAUUACGACAG', 'self-splicing fitness (ln)', -0.799),
  ('GGGGAGCAAUAUUACGCCCA', 'self-splicing fitness (ln)', -0.0692),
  ('GAGUAGCAAUAUUACGCCGC', 'self-splicing fitness (ln)', -1.29),
  ('ACCAAGCAAUAUUACGGGAG', 'self-splicing fitness (ln)', -2.66),
  ('CGGUAGCAAUAUUACGGCAU', 'self-splicing fitness (ln)', -2.11),
  ('AUAAAGCAAUAUUACGAUUU', 'self-splicing fitness (ln)', 0.827);

Could you tell me self-splicing fitness (ln) for each of these sequences? They are listed below.
1. UGCGAGCAAUAUUACGAUUG
2. CGUGAGCAAUAUUACGAAUG
3. GCGAAGCAAUAUUACGGGGG
4. UCAUAGCAAUAUUACGUUGG
5. UCUUAGCAAUAUUACGCAAA

1. -1.35
2. -0.913
3. -2.48
4. -1.05
5. -2.31
